Just for reference, patent US20180057505A1 is where these values come from.

Target: PAR2 (HT-29 cells) (Homo sapiens, UniProt P55085)
Construct: host or cells: HT-29
Sequence (P55085 26-397): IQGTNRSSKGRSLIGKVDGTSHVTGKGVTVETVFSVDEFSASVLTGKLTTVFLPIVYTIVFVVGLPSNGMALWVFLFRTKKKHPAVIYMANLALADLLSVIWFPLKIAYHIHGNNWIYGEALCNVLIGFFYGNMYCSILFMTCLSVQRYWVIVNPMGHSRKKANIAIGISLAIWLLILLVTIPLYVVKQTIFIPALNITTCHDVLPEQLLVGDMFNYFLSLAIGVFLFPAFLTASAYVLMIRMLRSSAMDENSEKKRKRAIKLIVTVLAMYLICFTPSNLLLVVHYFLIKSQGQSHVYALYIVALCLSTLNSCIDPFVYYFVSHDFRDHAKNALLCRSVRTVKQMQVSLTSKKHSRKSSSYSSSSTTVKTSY
Assay: Ca FLIPR TETRA assay, ANTAGONIST mode, activator 8 μM SLIGKV
Assay type: cell-based
Conditions: HT-29 cells; activator 8 μM SLIGKV; Method A: maximal concentration of antagonist 0.1, 1 or 2 μM
Property Label: IC50 (nM)

Molecule	IC50 [nM]
CC1(C)CCC(c2cc(C(C)(C)C)c3oc(C(=O)N4CCN(C(=O)CC(C)(C)C(=O)O)CC4(C)C)cc3n2)CC1	0.4
Cc1oc(C2CCN(C(=O)c3cc4nc(-c5ccc(Cl)c(F)c5)cc(C(C)(C)C)c4o3)C(C)(C)C2)nc1C(=O)O (stereo not shown)	0.6
CC(C)(CCC(=O)N1CCN(C(=O)c2cc3nc(-c4ccc(Cl)c(F)c4)cc(C(C)(C)C)c3o2)C(C)(C)C1)C(=O)O	0.2

a: Cc1cc(C(=O)O)c(N2CCN(C(=O)c3cc4nc(-c5ccc(Cl)c(F)c5)cc(C(C)(C)C)c4o3)C(C)(C)C2)nn1
b: CC(C)(C)c1cc(-c2ccc(Cl)cc2)nc2cc(C(=O)N3CCN(c4ccc(C(=O)O)nn4)CC3(C)C)oc12
Looking at recorded values for IC50, does a or b come in lower? # reply format: chosen label
b
(b: 1.1 nM, a: 270 nM)

a: Cn1cnnc1N1CCN(C(=O)c2cc3nc(C4CCC(C)(C)CC4)cc(C(C)(C)C)c3o2)C(C)(C)C1
b: COc1cc(N2CCN(C(=O)c3cc4nc(-c5ccc(Cl)c(F)c5)cc(C(C)(C)C)c4o3)C(C)(C)C2)ncc1C(=O)O
c: Cc1cc(N2CCN(C(=O)c3cc4nc(-c5ccc(Cl)c(F)c5)cc(C(C)(C)C)c4o3)C(C)(C)C2)ncc1C(=O)O
d: CC(C)(C)c1cc(-c2ccc(Cl)cc2)nc2cc(C(=O)N3CCN(c4cncc(C(=O)O)n4)CC3(C)C)oc12
Hello, I need these entries ordered by IC50, highest reading first. Thanks! Answer by naming the labels in the order asked.
a, d, c, b
